Experiment: Glass transition temperature Tg and morphology M by means of DSC
Type: physicochemical
recorded-metric: glass transition temperature Tg (°C)

COc1ccc(N(c2ccc(OC)cc2)c2ccc(-c3ccc(N(c4ccc(OC)cc4)c4ccc(-c5ccc(N(c6ccc(OC)cc6)c6ccc(-c7ccc(N(c8ccc(OC)cc8)c8ccc(OC)cc8)cc7)cc6)c(C)c5)cc4C)cc3)cc2)cc1    134
CCCCCCC1(CCCCCC)c2cc(N(c3ccc(OCC(CC)CCCC)cc3)c3ccc(-c4ccc(N(c5ccc(OC)cc5)c5ccc(OC)cc5)cc4)cc3)ccc2-c2ccc(N(c3ccc(OCC(CC)CCCC)cc3)c3ccc(-c4ccc(N(c5ccc(OC)cc5)c5ccc(OC)cc5)cc4)cc3)cc21 (stereo not shown)    47
COc1ccc(N(c2ccc(OC)cc2)c2ccc(-c3ccc(N(c4ccc(-c5ccc(N(c6ccc(-c7ccc(N(c8ccc(OC)cc8)c8ccc(OC)cc8)cc7)cc6)c6ccc7c(c6)C(C)(C)c6ccccc6-7)cc5)cc4)c4ccc5c(c4)C(C)(C)c4ccccc4-5)cc3)cc2)cc1    154
COc1ccc(N(c2ccc(-c3ccc(N(c4ccc(OC)cc4)c4ccc(-c5ccc(N(c6ccc(OC)cc6)c6ccc7c(c6)C(C)(C)c6ccccc6-7)cc5)cc4)cc3)cc2)c2ccc(-c3ccc(N(c4ccc(OC)cc4)c4ccc5c(c4)C(C)(C)c4ccccc4-5)cc3)cc2)cc1    156

* * *

Assay: physchem
Details: organic solvent or mixture, solubility L in chlorobenzene
solubility values by entry

COc1ccc(N(c2ccc(OC)cc2)c2ccc(-c3ccc(N(c4ccc(-c5ccc(N(c6ccc(-c7ccc(N(c8ccc(OC)cc8)c8ccc(OC)cc8)cc7)cc6)c6ccc(C(C)(C)C)cc6)cc5)cc4)c4ccc(C(C)(C)C)cc4)cc3)cc2)cc1    500 to 1000 mg/mL
COc1ccc(N(c2ccc(OC)cc2)c2ccc(N(c3ccccc3)c3ccc(-c4ccc(N(c5ccccc5)c5ccc(N(c6ccc(OC)cc6)c6ccc(OC)cc6)cc5)cc4)cc3)cc2)cc1    760 to 1000 mg/mL
COc1ccc(N(c2ccc(C)cc2)c2ccc(-c3ccc(N(c4ccc(OC)cc4)c4ccc(-c5ccc(N(c6ccc(OC)cc6)c6ccc(-c7ccc(N(c8ccc(C)cc8)c8ccc(OC)cc8)cc7)cc6)cc5)cc4)cc3)cc2)cc1    > 900 mg/mL
COc1ccc(N(c2ccc(OC)cc2)c2ccc(-c3ccc(N(c4ccccc4)c4ccc(-c5ccc(N(c6ccccc6)c6ccc(-c7ccc(N(c8ccc(OC)cc8)c8ccc(OC)cc8)cc7)cc6)cc5)cc4)cc3)cc2)cc1    900 to 1150 mg/mL
CCCCCCC1(CCCCCC)c2cc(N(c3ccc(OCC(CC)CCCC)cc3)c3ccc(-c4ccc(N(c5ccc(OC)cc5)c5ccc(OC)cc5)cc4)cc3)ccc2-c2ccc(N(c3ccc(OCC(CC)CCCC)cc3)c3ccc(-c4ccc(N(c5ccc(OC)cc5)c5ccc(OC)cc5)cc4)cc3)cc21 (stereo not shown)    400 to 800 mg/mL

Prompt: What value of solubility has been recorded for this entry: `COc1ccc(N(c2ccc(OC)cc2)c2ccc(-c3ccc(N(c4ccc(OC)cc4)c4ccc5c(c4)Cc4cc(N(c6ccc(OC)cc6)c6ccc(-c7ccc(N(c8ccc(OC)cc8)c8ccc(OC)cc8)cc7)cc6)ccc4-5)cc3)cc2)cc1`
Completion: 1250 to 2500 mg/mL

Prompt: Need solubility, item `COc1ccc(N(c2ccc(OC)cc2)c2ccc(-c3ccc(N(c4ccc(OC)cc4)c4ccc(-c5ccc(N(c6ccc(OC)cc6)c6ccc(-c7ccc(N(c8ccc(OC)cc8)c8ccc(OC)cc8)cc7)cc6)s5)s4)cc3)cc2)cc1`
Completion: > 400 mg/mL

Prompt: Tell me the measured solubility of `COc1ccc(C(c2ccc(OC)cc2)c2ccc(N(c3ccc(OC)cc3)c3ccc(-c4ccc(N(c5ccc(OC)cc5)c5ccc(N(c6ccc(OC)cc6)c6ccc(OC)cc6)cc5)cc4)cc3)cc2)cc1` , please.
Completion: > 280 mg/mL

* * *

Experiment: physchem
Details: organic solvent or mixture, solubility in Toluene
Below, each entry is listed with its recorded solubility.

A selection of reference data follows.
COc1ccc(N(c2ccc(OC)cc2)c2ccc(-c3ccc(N(c4ccc(-c5ccc(N(c6ccc(-c7ccc(N(c8ccc(OC)cc8)c8ccc(OC)cc8)cc7)cc6)c6ccc7c(c6)C(C)(C)c6ccccc6-7)cc5)cc4)c4ccc5c(c4)C(C)(C)c4ccccc4-5)cc3)cc2)cc1 [ID369]    140 to 170 mg/mL
COc1ccc(N(c2ccc(OC)cc2)c2ccc(-c3ccc(N(c4ccc(OC)cc4)c4ccc(-c5ccc(N(c6ccc(OC)cc6)c6ccc(-c7ccc(N(c8ccc(OC)cc8)c8ccc(OC)cc8)cc7)cc6)c(C)c5)cc4C)cc3)cc2)cc1 [ID631]    500 to 1000 mg/mL
COc1ccc(N(c2ccc(OC)cc2)c2ccc(-c3ccc(N(c4ccc(-c5ccc(N(c6ccc(-c7ccc(N(c8ccc(OC)cc8)c8ccc(OC)cc8)cc7)cc6)c6ccc(C(C)(C)C)cc6)cc5)cc4)c4ccc(C(C)(C)C)cc4)cc3)cc2)cc1 [ID368]    > 240 mg/mL

// next item, solubility requested
Prompt: Given the entry COc1ccc(N(c2ccc(-c3ccc(N(c4ccc(OC)cc4)c4ccc(-c5ccc(N(c6ccc(OC)cc6)c6ccc7c(c6)C(C)(C)c6ccccc6-7)cc5)cc4)cc3)cc2)c2ccc(-c3ccc(N(c4ccc(OC)cc4)c4ccc5c(c4)C(C)(C)c4ccccc4-5)cc3)cc2)cc1 [ID453] , report its measured solubility.
Completion: 170 to 230 mg/mL

* * *

Assay: Decomposition temperature Td by means of TGA
Type: physicochemical
recorded-metric: decomposition temperature Td (°C)

CCCCCCC1(CCCCCC)c2cc(N(c3ccc(OCC(CC)CCCC)cc3)c3ccc(-c4ccc(N(c5ccc(OC)cc5)c5ccc(OC)cc5)cc4)cc3)ccc2-c2ccc(N(c3ccc(OCC(CC)CCCC)cc3)c3ccc(-c4ccc(N(c5ccc(OC)cc5)c5ccc(OC)cc5)cc4)cc3)cc21 (stereo not shown) [ID569]    440
COc1ccc(N(c2ccc(OC)cc2)c2ccc(-c3ccc(N(c4ccc(OC)cc4)c4ccc(C5(c6ccc(N(c7ccc(OC)cc7)c7ccc(-c8ccc(N(c9ccc(OC)cc9)c9ccc(OC)cc9)cc8)cc7)cc6)CCCCC5)cc4)cc3)cc2)cc1 [ID452]    450
CCN(CC)c1ccc(N(c2ccc(-c3ccc(N(c4ccc(OC)cc4)c4ccc(OC)cc4)cc3)cc2)c2ccc(-c3ccc(N(c4ccc(-c5ccc(N(c6ccc(OC)cc6)c6ccc(OC)cc6)cc5)cc4)c4ccc(N(CC)CC)cc4)cc3)cc2)cc1 [ID521]    420
COc1ccc(N(c2ccc(-c3ccc(N(c4ccc(OC)cc4)c4ccc(-c5ccc(N(c6ccc(OC)cc6)c6ccc(C)c(C)c6)cc5)cc4)cc3)cc2)c2ccc(-c3ccc(N(c4ccc(OC)cc4)c4ccc(C)c(C)c4)cc3)cc2)cc1 [ID519]    450
COc1ccc(N(c2ccc(OC)cc2)c2ccc(-c3ccc(N(c4ccc(OC)cc4)c4ccc(N(c5ccc(OC)cc5)c5ccc(-c6ccc(N(c7ccc(OC)cc7)c7ccc(OC)cc7)cc6)cc5)cc4)cc3)cc2)cc1 [ID446]    430
COc1ccc(N(c2ccc(OC)cc2)c2ccc(-c3ccc(N(c4ccc(OC)cc4)c4ccc5c(c4)C(C)(C)c4cc(N(c6ccc(OC)cc6)c6ccc(-c7ccc(N(c8ccc(OC)cc8)c8ccc(OC)cc8)cc7)cc6)ccc4-5)cc3)cc2)cc1 [ID447]    430
CCCCC(CC)COc1ccc(N(c2ccc(-c3ccc(N(c4ccc(OC)cc4)c4ccc(OC)cc4)cc3)cc2)c2ccc(-c3ccc(N(c4ccc(OCC(CC)CCCC)cc4)c4ccc(-c5ccc(N(c6ccc(OC)cc6)c6ccc(OC)cc6)cc5)cc4)cc3)cc2)cc1 (stereo not shown) [ID568]    360

* * *

Test: physchem
Conditions: organic solvent or mixture, solubility L in chlorobenzene
recorded-metric: solubility

COc1ccc(N(c2ccc(OC)cc2)c2ccc3c(c2)C2(c4cc(N(c5ccc(OC)cc5)c5ccc(OC)cc5)ccc4-3)c3cc(N(c4ccc(OC)cc4)c4ccc(OC)cc4)ccc3-c3ccc(N(c4ccc(OC)cc4)c4ccc(OC)cc4)cc32)cc1 [spiro-MeOTAD, reference compound]    200 to 230 mg/mL

Would you kindly look at the next entry?
Prompt: Please report the recorded solubility for `COc1ccc(N(c2ccc(OC)cc2)c2ccc(-c3ccc(N(c4ccc(OC)cc4)c4ccc5c(c4)C(C)(C)c4cc(N(c6ccc(OC)cc6)c6ccc(-c7ccc(N(c8ccc(OC)cc8)c8ccc(OC)cc8)cc7)cc6)ccc4-5)cc3)cc2)cc1` .
Completion: 900 to 1800 mg/mL

* * *

Assay: Decomposition temperature Td by means of TGA
Type: physicochemical
recorded-metric: decomposition temperature Td (°C)

COc1ccc(N(c2ccc(OC)cc2)c2ccc(-c3ccc(N(c4ccc(OC)cc4)c4ccc5c(c4)Cc4cc(N(c6ccc(OC)cc6)c6ccc(-c7ccc(N(c8ccc(OC)cc8)c8ccc(OC)cc8)cc7)cc6)ccc4-5)cc3)cc2)cc1    450
COc1ccc(N(c2ccc(OC)cc2)c2ccc(-c3ccc(N(c4ccc(OC)cc4)c4ccc(-c5ccc(N(c6ccc(OC)cc6)c6ccc(-c7ccc(N(c8ccc(OC)cc8)c8ccc(OC)cc8)cc7)cc6)s5)s4)cc3)cc2)cc1    440
COc1ccc(N(c2ccc(OC)cc2)c2ccc3c(c2)C(C)(C)c2cc(N(c4ccc(OC)cc4)c4ccc(-c5ccc(N(c6ccc(OC)cc6)c6ccc7c(c6)C(C)(C)c6cc(N(c8ccc(OC)cc8)c8ccc(OC)cc8)ccc6-7)cc5)cc4)ccc2-3)cc1    430
COc1ccc(N(c2ccc(C)cc2)c2ccc(-c3ccc(N(c4ccc(OC)cc4)c4ccc(-c5ccc(N(c6ccc(OC)cc6)c6ccc(-c7ccc(N(c8ccc(C)cc8)c8ccc(OC)cc8)cc7)cc6)cc5)cc4)cc3)cc2)cc1    450
COc1ccc(N(c2ccc(-c3ccc(N(c4ccc(OC)cc4)c4ccc(-c5ccc(N(c6ccc(OC)cc6)c6ccc7c(c6)C(C)(C)c6ccccc6-7)cc5)cc4)cc3)cc2)c2ccc(-c3ccc(N(c4ccc(OC)cc4)c4ccc5c(c4)C(C)(C)c4ccccc4-5)cc3)cc2)cc1    440
COc1ccc(N(c2ccc(OC)cc2)c2ccc(N(c3ccccc3)c3ccc(-c4ccc(N(c5ccccc5)c5ccc(N(c6ccc(OC)cc6)c6ccc(OC)cc6)cc5)cc4)cc3)cc2)cc1    450
COc1ccc(N(c2ccc(OC)cc2)c2ccc(-c3ccc(N(c4ccc(-c5ccc(N(c6ccc(-c7ccc(N(c8ccc(OC)cc8)c8ccc(OC)cc8)cc7)cc6)c6ccc(C(C)(C)C)cc6)cc5)cc4)c4ccc(C(C)(C)C)cc4)cc3)cc2)cc1    460
COc1ccc(N(c2ccc(OC)cc2)c2ccc3c(c2)C2(c4cc(N(c5ccc(OC)cc5)c5ccc(OC)cc5)ccc4-3)c3cc(N(c4ccc(OC)cc4)c4ccc(OC)cc4)ccc3-c3ccc(N(c4ccc(OC)cc4)c4ccc(OC)cc4)cc32)cc1 [spiro-MeOTAD, reference compound]    440
COc1ccc(N(c2ccc(OC)cc2)c2ccc(-c3ccc(N(c4ccc(OC)cc4)c4ccc(-c5ccc(N(c6ccc(OC)cc6)c6ccc(-c7ccc(N(c8ccc(OC)cc8)c8ccc(OC)cc8)cc7)cc6)c(C)c5)cc4C)cc3)cc2)cc1    440
